test_target: ARHGEF12, Q9NZN5-2
Sequence (Q9NZN5 other isoform, or with tags, fused parts or gaps): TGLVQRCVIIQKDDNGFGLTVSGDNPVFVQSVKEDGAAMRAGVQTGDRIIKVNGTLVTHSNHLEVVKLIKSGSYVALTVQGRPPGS
assay: holdup assay
Parameters: key: below the threshold = too weak to quantify, mostly under pKd 3.1 to 4
conditions_used: plain residues with an end cap or a label only (N-terminal biotin on a linker: ahx)
assay_readout: pKd

binder	assay_readout	reported_value
HNAFLSVTTV [PDZRN4, Q6ZMN7]	pKd	below the threshold
RAVEEEESRF [PSCDBP, O60759]	pKd	below the threshold
RRRKRKRTYL [HPV49-L2, P36762]	pKd	4.68
PSASCAVTAA [PDLIM4, P50479;P50479-2]	pKd	below the threshold
NRKREIFSNF [NHERF2, Q15599]	pKd	below the threshold
TVICWPGSLV [LNX2, Q8N448]	pKd	below the threshold
LSDPSVSTVV [GRIN1, Q05586]	pKd	3.71
SDSSGQEYSL [KCTD3, Q9Y597]	pKd	below the threshold
GYDWGPATDL [TJP3, O95049]	pKd	4.66
ESLLLGPSNF [SHROOM4, Q9ULL8]	pKd	below the threshold
